measuredTarget: OX1 (Homo sapiens)
Construct: expressed in transfected cells; host or cells: CHO (CHO-OX1, kept under selection antibiotic)
Sequence (O43613 whole entry): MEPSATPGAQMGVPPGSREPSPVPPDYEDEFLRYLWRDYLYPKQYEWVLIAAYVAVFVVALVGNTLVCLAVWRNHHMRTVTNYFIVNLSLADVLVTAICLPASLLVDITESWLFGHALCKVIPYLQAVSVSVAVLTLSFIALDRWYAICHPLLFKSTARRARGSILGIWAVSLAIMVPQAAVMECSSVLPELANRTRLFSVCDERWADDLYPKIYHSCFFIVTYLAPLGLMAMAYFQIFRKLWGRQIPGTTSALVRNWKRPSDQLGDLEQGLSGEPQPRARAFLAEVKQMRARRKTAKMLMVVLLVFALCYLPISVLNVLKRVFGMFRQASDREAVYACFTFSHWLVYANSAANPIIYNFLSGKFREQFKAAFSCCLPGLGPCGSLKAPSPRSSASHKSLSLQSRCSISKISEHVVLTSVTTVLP
experimentalDetails: Orexin receptor cell-based functional assay, [Ca2+]i by FLIPR, CHO-OX1 cells
measurementConditions: CHO-OX1 cells, [Ca2+]i by FLIPR, antagonist dose-range 0.1 nM-10 μM, EC90 of OXA; read-out: OX1
So basically, if IC50 comes in under 8 nM it's Condition met, and if it's 8 nM or more it's Condition not met.

Q: Is IC50 of Cc1ccc(-c2ccccn2)c(C(=O)N2CCC[C@@H](C)[C@H]2CNc2ccc(C(F)(F)F)cn2)c1 strictly below 8 nM?
Ans: Condition not met
